assay.readout: melting point

- compound: "C[N+]1(CC2CC2)CC[C@]23CC(=O)CC[C@@]2(O)[C@H]1Cc1ccc(C(N)=O)c(O)c13 (stereo partly shown)"
  melting point: "197 to 198 °C"
- compound: "C[N+]1(CC2CC2)CC[C@]23c4c5ccc(C(N)=O)c4O[C@H]2C(=O)CC[C@@]3(O)[C@H]1C5 (stereo partly shown) [Compound 4, 3-Carboxamido-naltrexone methiodide]"
  melting point: "189 to 190 °C"
- compound: "CC1C2Cc3ccc(O)cc3C1(C)CC[N+]2(C)CC1CC1 (stereo not shown) [Compound 8, Cyclazocine methiodide]"
  melting point: "165 to 168 °C"

Kindly consider the entry below.
The measured melting point associated with CC1C2Cc3ccc(C(N)=O)cc3C1(C)CC[N+]2(C)CC1CC1 (stereo not shown) [Compound 10, 8-Carboxamido-cyclazocine methiodide] reads 237 to 238 °C

###

- target.or.system: human δ opioid receptor (Homo sapiens)
- Sequence (P41143 whole entry): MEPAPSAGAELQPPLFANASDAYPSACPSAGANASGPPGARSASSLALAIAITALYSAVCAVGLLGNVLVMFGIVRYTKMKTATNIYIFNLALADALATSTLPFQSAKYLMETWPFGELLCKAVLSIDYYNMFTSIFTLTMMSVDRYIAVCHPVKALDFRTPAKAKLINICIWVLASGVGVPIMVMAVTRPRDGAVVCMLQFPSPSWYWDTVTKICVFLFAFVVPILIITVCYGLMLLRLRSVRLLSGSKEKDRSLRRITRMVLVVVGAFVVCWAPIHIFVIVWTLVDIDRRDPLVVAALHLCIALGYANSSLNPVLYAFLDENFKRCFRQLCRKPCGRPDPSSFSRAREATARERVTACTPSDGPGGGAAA
- test.name: biochemical
assay.readout: Ki (nM)
Enter your answer as a number in nM; do not include the unit.

# Ki (compound: CC1C2Cc3ccc(C(N)=O)cc3C1(C)CC[N+]2(C)CC1CC1 (stereo not shown) [Compound 10, 8-Carboxamido-cyclazocine methiodide] ) is 360
